Test system: NCI-H460 lung
Assay: NCI-60 one-dose screen, 48 h (100 = growth as untreated, 0 = no growth, -100 = all killed)
Conditions: 10 µM unless noted
The panel holds about 83,000 compounds, 20% with a hit somewhere; the sample as a whole holds those more often.
measurementName: growth (%)
The reply should be a number in %, with the unit left off.

compound: O=C(Cn1cccc(Nc2ccccc2)c1=O)Nc1ccccc1
measurementName: growth
unitsText: %
numericValue: 106
//
compound: CC(C)C[C@@H](NC(=O)[C@@H](Cc1ccccc1)NC(=O)c1cnccn1)B1Oc2ccc(C[C@H](NC(=O)[C@H](Cc3ccc4c(c3)OB([C@@H](CC(C)C)NC(=O)[C@@H](Cc3ccccc3)NC(=O)c3cnccn3)O4)NC(=O)[C@@H](N)CC3CCC4OB([C@@H](CC(C)C)NC(=O)[C@@H](CC5CCCCC5)NC(=O)C5CNCCN5)OC4C3)C(=O)NCCCC[C@@H]3NC(=O)[C@@H](Cc4ccccc4)NC(=O)[C@H](CC(=O)O)NC(=O)CNC(=O)[C@H](CCCNC(=N)N)NC3=O)cc2O1 (stereo partly drawn)
measurementName: growth
unitsText: %
numericValue: -54.8
//
compound: CC1=C[C@H]2c3c(c(O)c(O)c4oc5cc(O)ccc5c(=O)c34)[C@H](c3cc(O)c(O)c4oc5cc(O)ccc5c(=O)c34)[C@H]2C(C)(C)C1
measurementName: growth
unitsText: %
numericValue: 0.208
//
compound: COc1cc(/C=C/C(=O)Nc2cccnc2Nc2ccc(F)cc2)cc(OC)c1OC
measurementName: growth
unitsText: %
numericValue: 112
//
compound: CC(O)CN(CC(C)O)c1ccc2c(c1)Cc1cc([N+](=O)[O-])ccc1-2 (stereo not drawn)
measurementName: growth
unitsText: %
numericValue: 104

stdin: I am curious: what growth value has been reported for COc1ccc(CN2c3ccccc3Sc3ccccc32)c(C(F)(F)F)c1 ?
stdout: 9.92

stdin: I am curious: what growth value has been reported for CN(C)C(=S)N=Nc1c(O)[nH]c2ccccc12 ?
stdout: -4.55

stdin: I am curious: what growth value has been reported for COc1ccc2c(c1)C(=O)/C(=C/c1cccnc1)CC2 ?
stdout: 105

----------
Tested on: SW-620 colon
Experiment: NCI-60 one-dose screen, 48 h
Conditions: 10 µM unless noted
About 83,000 compounds went through this panel and 20% of them were active in at least one assay; those are over-represented in the sample as a whole. The source made the active and inactive calls. How the source made its calls: active means growth percent below 10; inactive means the rest.
Select the correct class. Options are y (active), n (inactive) and nothing else.

Worked examples follow.
molecule: CC(C)(O)c1cn(CCCCN2C(=O)C(=O)c3ccccc32)nn1
qualitativeLabel: n
//
molecule: CCN1CCC2(CC1)NC(=O)c1c(c3ccc(Cl)c(Cl)c3n1C)C2C#N (configuration not stated)
qualitativeLabel: n
//
molecule: COc1cc(C(=O)Oc2ccccc2OC(=O)c2cc(OC)c(OC)c(OC)c2)cc(OC)c1OC
qualitativeLabel: n
//
molecule: O=C(O)COc1ccc(Cl)cc1C1CCCCC1
qualitativeLabel: n
//
molecule: CC(C)CC1C(=O)N2CCC[C@H]2C2(O)O[C@](NC(=O)C3C=C4c5cccc6[nH]c(Br)c(c56)C[C@H]4N(C)C3)(C(C)C)C(=O)N12 (some centres not stated)
qualitativeLabel: n
//
molecule: c1ccc(Cn2cc(-c3nc4ccccc4s3)c3cccnc32)cc1
qualitativeLabel: n

stdin: Hi, do you know how CC(=O)c1cc2c(N)c(C(=O)Nc3cccc4ccccc34)sc2nc1C came out in this test?
stdout: n

stdin: Hi, do you know how Cn1cc(-c2nonc2-c2c[nH]c3ccccc23)c2cccnc21 came out in this test?
stdout: n

stdin: Hi, do you know how CC(O)CN1CC(O)=C(c2nc3ccccc3s2)C1=N (configuration not stated) came out in this test?
stdout: n

stdin: Hi, do you know how COc1ccc2c(c1)C(=O)/C(=C/c1cccnc1)CC2 came out in this test?
stdout: n

stdin: Hi, do you know how O=C(N/N=C/c1c[nH]c2ccccc12)c1cc(-c2ccccc2)on1 came out in this test?
stdout: n

stdin: Hi, do you know how COc1cc(/C=C/c2cc(/C=C/c3ccc(O)c(OC)c3)n(-c3c(C)cccc3C)c(=O)n2)ccc1O came out in this test?
stdout: y

stdin: Hi, do you know how CC1=C[C@H]2c3c(c(O)c(O)c4oc5ccccc5c(=O)c34)[C@H](c3cc(O)c(O)c4oc5ccccc5c(=O)c34)[C@H]2C(C)(C)C1 came out in this test?
stdout: n

stdin: Hi, do you know how CSc1nc(-c2cccc(NC(=O)CCl)c2)c(C#N)c(=O)n1C came out in this test?
stdout: n

stdin: Hi, do you know how C=CC(=O)Nc1cccc(-c2nc(SC)nc(NCc3ccccc3)c2C#N)c1 came out in this test?
stdout: n

stdin: Hi, do you know how COc1cccc(-c2nn(C(C)(C)C)cc2-c2ccnc(NCCCNS(=O)(=O)c3cccc4ccccc34)c2)c1 came out in this test?
stdout: n

stdin: Hi, do you know how CCNc1ncnc2c1cnn2C1CCCO1 (configuration not stated) came out in this test?
stdout: n
